Where these numbers come from: the supplement of paper PMC10724198

System: Saccharomyces cerevisiae;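 further: PSI is a weighted mean of sequencing reads over stability bins, variants kept only with over 10 reads, mCherry proximal and sfGFP distal, peptide attached via GGGS linker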
Experiment: protein stability index of tFT-peptide fusion (C-terminal peptide) (PSI (0-1 scale)); higher = more stable (slower turnover)
Conditions: genetic background: wild type; temperature: 30 C
assayMetric: protein stability index
# respond with the number and nothing more

Here's what some known entries look like.
seq | measValue
DRPDLVLAGVCG | 0.756
SPPLHPPPPFPL | 0.769
VPDDGVLLSVLE | 0.718
APNGTPPLSLAS | 0.646
GVSWSWRGCCRR | 0.711
LFGTGVRCGVCS | 0.637
GGARGDEGGGSA | 0.761
LVLLPLPLPLFP | 0.578
GRGGEGQGKRRE | 0.668
PVSVSSFFLSRF | 0.767

Entry `LPPSPPDPTPPP` ; protein stability index = 0.594

// sample `PFPSLLPALSSL` , its protein stability index was 0.678
